Biological target: T1, TNFR1 (Homo sapiens, UniProt P19438)
T1 chain: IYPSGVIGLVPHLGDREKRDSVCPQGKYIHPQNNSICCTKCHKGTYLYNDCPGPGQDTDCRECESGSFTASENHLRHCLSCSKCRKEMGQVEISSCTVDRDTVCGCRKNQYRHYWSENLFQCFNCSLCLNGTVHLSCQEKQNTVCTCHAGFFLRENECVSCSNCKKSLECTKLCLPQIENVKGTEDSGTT
Assay: yeast display SC50
metric-name: apparent Kd (screen) (nM)

Below: 3 binders and their reported apparent Kd (screen).
[[record]]
binder = "P32A (designed binder) MTLQELLREEALRRAEAEAFRYALELLAEKFAEQKEYLLDLAEEIESQIRSLSGVDVEDVRKFLDKEWAWVKELLAEHPAELAEVEAARAARLAELRAEVEAKVAA"
result_units = "nM"
result_number = 0.653

[[record]]
binder = "E25W (designed binder) MTLQELLREEALRRAEAEAFRYALWLLAEKFPEQKEYLLDLAEEIESQIRSLSGVDVEDVRKFLDKEWAWVKELLAEHPAELAEVEAARAARLAELRAEVEAKVAA"
result_units = "nM"
result_number = 1.16

[[record]]
binder = "A69I (designed binder) MTLQELLREEALRRAEAEAFRYALELLAEKFPEQKEYLLDLAEEIESQIRSLSGVDVEDVRKFLDKEWIWVKELLAEHPAELAEVEAARAARLAELRAEVEAKVAA"
result_units = "nM"
result_number = 0.653


a = D40K (designed binder) MTLQELLREEALRRAEAEAFRYALELLAEKFPEQKEYLLKLAEEIESQIRSLSGVDVEDVRKFLDKEWAWVKELLAEHPAELAEVEAARAARLAELRAEVEAKVAA
b = V55W (designed binder) MTLQELLREEALRRAEAEAFRYALELLAEKFPEQKEYLLDLAEEIESQIRSLSGWDVEDVRKFLDKEWAWVKELLAEHPAELAEVEAARAARLAELRAEVEAKVAA
c = E36M (designed binder) MTLQELLREEALRRAEAEAFRYALELLAEKFPEQKMYLLDLAEEIESQIRSLSGVDVEDVRKFLDKEWAWVKELLAEHPAELAEVEAARAARLAELRAEVEAKVAA
d = K30Q (designed binder) MTLQELLREEALRRAEAEAFRYALELLAEQFPEQKEYLLDLAEEIESQIRSLSGVDVEDVRKFLDKEWAWVKELLAEHPAELAEVEAARAARLAELRAEVEAKVAA
q: // ascending sort on recorded apparent Kd (screen) Answer by writing out the labels in the requested order.
a: c, d, b, a
(c: 0.49 nM, d: 0.718 nM, b: 1.16 nM, a: 9.41 nM)

a = L93I (designed binder) MTLQELLREEALRRAEAEAFRYALELLAEKFPEQKEYLLDLAEEIESQIRSLSGVDVEDVRKFLDKEWAWVKELLAEHPAELAEVEAARAARIAELRAEVEAKVAA
b = P79Y (designed binder) MTLQELLREEALRRAEAEAFRYALELLAEKFPEQKEYLLDLAEEIESQIRSLSGVDVEDVRKFLDKEWAWVKELLAEHYAELAEVEAARAARLAELRAEVEAKVAA
c = R13A (designed binder) MTLQELLREEALARAEAEAFRYALELLAEKFPEQKEYLLDLAEEIESQIRSLSGVDVEDVRKFLDKEWAWVKELLAEHPAELAEVEAARAARLAELRAEVEAKVAA
d = E73N (designed binder) MTLQELLREEALRRAEAEAFRYALELLAEKFPEQKEYLLDLAEEIESQIRSLSGVDVEDVRKFLDKEWAWVKNLLAEHPAELAEVEAARAARLAELRAEVEAKVAA
q: Please order the records by their reported apparent Kd (screen), lowest number first. In plain terms: list the labels in the order you were asked to.
a: c, a, b, d

a = F31E (designed binder) MTLQELLREEALRRAEAEAFRYALELLAEKEPEQKEYLLDLAEEIESQIRSLSGVDVEDVRKFLDKEWAWVKELLAEHPAELAEVEAARAARLAELRAEVEAKVAA
b = R21G (designed binder) MTLQELLREEALRRAEAEAFGYALELLAEKFPEQKEYLLDLAEEIESQIRSLSGVDVEDVRKFLDKEWAWVKELLAEHPAELAEVEAARAARLAELRAEVEAKVAA
q: Hey, which is lower on measured apparent Kd (screen), a or b ? Kindly give the label for the entry you pick.
a: a
(a: 0.49 nM, b: 0.869 nM)

Data credit: paper PMC12416549
